System: K. pneumoniae 83 KPC-3-positive, CTX-M-3-positive
assay_overview: checkerboard microdilution, antibiotic plus tested agent
Assay type: cell-based, Klebsiella pneumoniae
Threshold check on The lowest FICI with ERT: at or above 0.3 gives met, strictly below gives not met.

- molecule: "OB(O)c1ccc(B(O)O)c(F)c1"
  group: "not met"
- molecule: "OB(O)c1ccc(F)cc1B(O)O"
  group: "not met"
- molecule: "OB(O)c1ccccc1B(O)O"
  group: "not met"
- molecule: "OB(O)c1ccc(B(O)O)cc1"
  group: "not met"
- molecule: "OB(O)c1cc(F)c(B(O)O)cc1F"
  group: "met"
- molecule: "OB(O)c1cc(F)c(B(O)O)c(F)c1"
  group: "met"
- molecule: "OB(O)c1ccccc1 [PBA, phenylboronic acid, reference compound]"
  group: "met"
- molecule: "OB(O)c1cc(F)ccc1F"
  group: "met"

* * *

System: S. aureus ATCC 6538P
assay_overview: direct antimicrobial activity (disc-diffusion, MIC, MBC)
Assay type: cell-based
run_conditions: Staphylococcus aureus, ATCC6538P

- compound: "OB(O)c1cc(I)c(B(O)O)cc1I [1j]"
  censoring_qualifier: "="
  MIC, mg/L: 50
- compound: "OB(O)c1cc(C(F)(F)F)c(B(O)O)cc1C(F)(F)F [1h]"
  censoring_qualifier: "="
  MIC, mg/L: 400
- compound: "Cl.OB(O)c1cncc(B(O)O)c1 [6a]"
  censoring_qualifier: "="
  MIC, mg/L: 50
- compound: "OB(O)c1cccc(F)c1B(O)O [3b]"
  censoring_qualifier: ">"
  MIC, mg/L: 400
- compound: "OB(O)c1cc(B(O)O)cc(B(O)O)c1 [4a, benzene-1,3,5-triboronic acid]"
  censoring_qualifier: ">"
  MIC, mg/L: 400
- compound: "CC(=O)NC[C@H]1CN(c2ccc(N3CCOCC3)c(F)c2)C(=O)O1 [LIN, linezolid, reference compound]"
  censoring_qualifier: "="
  MIC, mg/L: 1
- compound: "O=Cc1cc(F)ccc1B(O)O [7b]"
  censoring_qualifier: "="
  MIC, mg/L: 50
- compound: "OB(O)c1c(F)c(F)c(F)c(F)c1B(O)O [3d]"
  censoring_qualifier: "="
  MIC, mg/L: 200
- compound: "OB(O)c1cc(F)ccc1F [7a, 2,5-difluorophenylboronic acid]"
  censoring_qualifier: "="
  MIC, mg/L: 50
- compound: "OB(O)c1ccc(B(O)O)c(B(O)O)c1 [4b, benzene-1,2,4-triboronic]"
  censoring_qualifier: "="
  MIC, mg/L: 25
- compound: "OB(O)c1ccc(B(O)O)c(F)c1F [1c]"
  censoring_qualifier: "="
  MIC, mg/L: 25

* * *

Tested on: S. epidermidis ATCC 12228
assay_overview: direct antimicrobial activity (disc-diffusion, MIC, MBC)
Format: cell-based
run_conditions: Staphylococcus epidermidis, ATCC12228; 0.4 mg per disc, 9 mm disc (linezolid 0.03 mg, 6 mm disc); - no zone; read-out: Diameter of inhibition zone

- molecule: "OB(O)c1cc(F)c(F)c(B(O)O)c1"
  target_or_test_system: "S. epidermidis ATCC 12228"
  zone of inhibition at 0.4 mg/disc (mm): 12
- molecule: "OB(O)c1ccccc1B(O)O"
  target_or_test_system: "S. epidermidis ATCC 12228"
  zone of inhibition at 0.4 mg/disc (mm): 20
- molecule: "OB(O)c1cc(F)c(B(O)O)c(F)c1"
  target_or_test_system: "S. epidermidis ATCC 12228"
  zone of inhibition at 0.4 mg/disc (mm): 21
- molecule: "OB(O)c1ccc(B(O)O)c(F)c1"
  target_or_test_system: "S. epidermidis ATCC 12228"
  zone of inhibition at 0.4 mg/disc (mm): 17
- molecule: "OB(O)c1cc(I)c(B(O)O)cc1I"
  target_or_test_system: "S. epidermidis ATCC 12228"
  zone of inhibition at 0.4 mg/disc (mm): 25
- molecule: "OB(O)c1ccccc1S"
  target_or_test_system: "S. epidermidis ATCC 12228"
  zone of inhibition at 0.4 mg/disc (mm): 30
- molecule: "OB(O)c1cccc(F)c1B(O)O"
  target_or_test_system: "S. epidermidis ATCC 12228"
  zone of inhibition at 0.4 mg/disc (mm): 21
- molecule: "OB(O)c1cc(C(F)(F)F)cc(B(O)O)c1F"
  target_or_test_system: "S. epidermidis ATCC 12228"
  zone of inhibition at 0.4 mg/disc (mm): 35
- molecule: "OB(O)c1ccc(B(O)O)cc1"
  target_or_test_system: "S. epidermidis ATCC 12228"
  zone of inhibition at 0.4 mg/disc (mm): 14
- molecule: "OB(O)c1ccsc1B(O)O"
  target_or_test_system: "S. epidermidis ATCC 12228"
  zone of inhibition at 0.4 mg/disc (mm): 13
- molecule: "OB(O)c1ccc(C(F)(F)F)cc1B(O)O"
  target_or_test_system: "S. epidermidis ATCC 12228"
  zone of inhibition at 0.4 mg/disc (mm): 21
- molecule: "OB(O)c1ccc(B(O)O)c(B(O)O)c1"
  target_or_test_system: "S. epidermidis ATCC 12228"
  zone of inhibition at 0.4 mg/disc (mm): 20
- molecule: "OB(O)c1cc(Br)c(B(O)O)cc1Br"
  target_or_test_system: "S. epidermidis ATCC 12228"
  zone of inhibition at 0.4 mg/disc (mm): 21
- molecule: "CC(=O)NC[C@H]1CN(c2ccc(N3CCOCC3)c(F)c2)C(=O)O1 [LIN, linezolid, reference compound]"
  target_or_test_system: "S. epidermidis ATCC 12228"
  zone of inhibition at 0.4 mg/disc (mm): 26
- molecule: "O=Cc1cc(F)ccc1B(O)O"
  target_or_test_system: "S. epidermidis ATCC 12228"
  zone of inhibition at 0.4 mg/disc (mm): 30
- molecule: "OB(O)c1cc(F)cc(B(O)O)c1"
  target_or_test_system: "S. epidermidis ATCC 12228"
  zone of inhibition at 0.4 mg/disc (mm): 19
- molecule: "OB(O)c1c(F)c(F)c(F)c(F)c1B(O)O"
  target_or_test_system: "S. epidermidis ATCC 12228"
  zone of inhibition at 0.4 mg/disc (mm): 21
- molecule: "OB(O)c1ccc(B(O)O)c(F)c1F"
  target_or_test_system: "S. epidermidis ATCC 12228"
  zone of inhibition at 0.4 mg/disc (mm): 28
- molecule: "OB(O)c1ccc(F)cc1B(O)O"
  target_or_test_system: "S. epidermidis ATCC 12228"
  zone of inhibition at 0.4 mg/disc (mm): 24
- molecule: "OB(O)c1cc(F)c(B(O)O)cc1F"
  target_or_test_system: "S. epidermidis ATCC 12228"
  zone of inhibition at 0.4 mg/disc (mm): 21
- molecule: "OB(O)c1cccc(B(O)O)c1"
  target_or_test_system: "S. epidermidis ATCC 12228"
  zone of inhibition at 0.4 mg/disc (mm): 21
- molecule: "OB(O)c1cc(F)c(B(O)O)c(F)c1F"
  target_or_test_system: "S. epidermidis ATCC 12228"
  zone of inhibition at 0.4 mg/disc (mm): 17
- molecule: "OB(O)c1ccc(Br)c(B(O)O)c1"
  target_or_test_system: "S. epidermidis ATCC 12228"
  zone of inhibition at 0.4 mg/disc (mm): 25
